Tested on: full-thickness dermal wounds
Experiment Summary: full-thickness dermal wounds in rabbit ear, histopathology (Example 5)
Type: in vivo, New Zealand White rabbits
Set-up: scale not given here
Condition Summary: 1% intradermal dosing days 15 and 29; Day 42; rabbit ear wound
Protocol: Test compounds were examined in full-thickness dermal wounds in rabbits. Seven male New Zealand White rabbits, ranging in body weight from 3.03 to 3.40 kg were used in this study. Four wounds were placed on the ventral surface of both ears using an 8 mm skin punch biopsy. […] Tissue H&E staining was evaluated semi-quantitatively for inflammation and neovascularization. Tissue fibrosis and collagen organization were evaluated by Mason's trichrome staining. […]
Measured Metric: Neovascularization (histopathology score, treated mean)

>  <Compound>
CNC(=O)c1ccccc1Sc1ccc2c(/C=C/c3ccccn3)n[nH]c2c1 [axitinib]

>  <Assay Value>
1

$$$$
>  <Compound>
COC(=O)c1ccc2c(c1)NC(=O)/C2=C(\Nc1ccc(N(C)C(=O)CN2CCN(C)CC2)cc1)c1ccccc1 [nintedanib]

>  <Assay Value>
1

$$$$
>  <Compound>
CCN(CC)CCNC(=O)c1c(C)[nH]c(/C=C2\C(=O)Nc3ccc(F)cc32)c1C [sunitinib]

>  <Assay Value>
4

$$$$
>  <Compound>
CNC(=O)c1cc(Oc2ccc(NC(=O)Nc3ccc(Cl)c(C(F)(F)F)c3)cc2)ccn1 [sorafenib]

>  <Assay Value>
3

$$$$
>  <Compound>
COc1cc2nccc(Oc3ccc(NC(=O)NC4CC4)c(Cl)c3)c2cc1C(N)=O [lenvatinib]

>  <Assay Value>
2

$$$$

Data origin, for the record: patent US11400089B2
